Values from patent US20260325685A1

- ASSAYED TARGET: human CA-XII (Homo sapiens)
- Construct: purchased Creative BioMart CA12-261H
- Sequence (O43570 25-354): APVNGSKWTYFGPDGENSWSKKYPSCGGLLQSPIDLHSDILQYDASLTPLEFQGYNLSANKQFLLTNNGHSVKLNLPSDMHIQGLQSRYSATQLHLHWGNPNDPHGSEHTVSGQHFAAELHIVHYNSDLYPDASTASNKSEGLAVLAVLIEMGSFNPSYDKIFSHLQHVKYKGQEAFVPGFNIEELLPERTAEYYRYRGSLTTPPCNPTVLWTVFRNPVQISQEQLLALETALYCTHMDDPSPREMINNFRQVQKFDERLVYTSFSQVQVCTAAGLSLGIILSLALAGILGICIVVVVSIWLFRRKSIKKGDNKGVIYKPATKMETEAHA
- PROTOCOL SUMMARY: Surface Plasmon Resonance (SPR) binding kinetics to recombinant human CA-XII (Biacore 8K, single-cycle kinetics, 1:1 binding model)
- ASSAY CONDITIONS: Chelated Metal: Lu-175, 25° C., pH 7.4, read-out: CAXII KD
pKd: −log10 of the molar value.
REPORTED METRIC: pKd

{"columns": ["QUERY SMILES", "ASSAYED TARGET", "VAL"],
 "data": [
  ["NS(=O)(=O)c1nnc(NC(=O)C23CC(c4cn(CCNC(=O)[C@@H]5CN(C(=O)CN6CCN(CC(=O)O)CCN(CC(=O)O)CCN(CC(=O)O)CC6)CCN5C(=O)CNC(=O)C5(C(=O)O)CCN(C(=O)Cc6ccc7[nH]ncc7c6)CC5)nn4)(C2)C3)s1.[Lu+3]", "human CA-XII (Homo sapiens)", "< 8.00"],
  ["NS(=O)(=O)c1nnc(NC(=O)C23CC(c4cn(CCNC(=O)[C@@H]5CN(C(=O)CN6CCN(CC(=O)O)CCN(CC(=O)O)CCN(CC(=O)O)CC6)CCN5C(=O)C[C@H](NC(=O)C[C@H](NC(=O)CCc5ccc(O)cc5)C(=O)O)C(=O)O)nn4)(C2)C3)s1.[Lu+3]", "human CA-XII (Homo sapiens)", "8.00 to 8.60"],
  ["CC(CCC(=O)N[C@@H](CC(=O)N[C@@H](CC(=O)N[C@@H](CCCCn1cc(C23CCC(C(=O)Nc4nnc(S(N)(=O)=O)s4)(CC2)C3)nn1)C(=O)NCC1(C(=O)O)CCN(C(=O)CN2CCN(CC(=O)O)CCN(CC(=O)O)CCN(CC(=O)O)CC2)CC1)C(=O)O)C(=O)O)(c1ccc(O)cc1)c1ccc(O)cc1.[Lu+3]", "human CA-XII (Homo sapiens)", "> 9.00"],
  ["CC(CCCC(=O)N1CCC2(CC2)C[C@H]1C(=O)N[C@@H](CC(=O)N1CCN(C(=O)CN2CCN(CC(=O)O)CCN(CC(=O)O)CCN(CC(=O)O)CC2)C[C@@H]1C(=O)NCCn1cc(C23CC(C(=O)Nc4nnc(S(N)(=O)=O)s4)(C2)C3)nn1)C(=O)O)(c1ccc(O)cc1)c1ccc(O)cc1.[Lu+3]", "human CA-XII (Homo sapiens)", "< 8.00"],
  ["CC(CCC(=O)N[C@@H](CC(=O)N[C@@H](CC(=O)N[C@@H](CCCn1cc(C23CCC(C(=O)Nc4nnc(S(N)(=O)=O)s4)(CC2)CC3)nn1)C(=O)NCCOCCOCCNC(=O)CN1CCN(CC(=O)O)CCN(CC(=O)O)CCN(CC(=O)O)CC1)C(=O)O)C(=O)O)(c1ccc(O)cc1)c1ccc(O)cc1.[Lu+3]", "human CA-XII (Homo sapiens)", "8.60 to 9.00"],
  ["CC[C@H]1CN(CC(=O)O)[C@@H](CC)CN(CC(=O)N2CCN(C(=O)C[C@H](NC(=O)C[C@H](NC(=O)CCC(C)(c3ccc(O)cc3)c3ccc(O)cc3)C(=O)O)C(=O)O)[C@H](C(=O)NCCn3cc(C45CC(C(=O)Nc6nnc(S(N)(=O)=O)s6)(C4)C5)nn3)C2)[C@@H](CC)CN(CC(=O)O)[C@@H](CC)CN1CC(=O)O.[Lu+3]", "human CA-XII (Homo sapiens)", "< 8.00"],
  ["CCC(CC)Nc1c(F)c(S(N)(=O)=O)c(F)c(F)c1S(=O)(=O)CCOCc1cn(CCNC(=O)[C@H]2CN(C(=O)CN3CCN(CC(=O)O)CCN(CC(=O)O)CCN(CC(=O)O)CC3)CCN2C(=O)C[C@H](NC(=O)[C@@H]2COCCN2C(=O)CCCc2ccc(O)cc2)C(=O)O)nn1.[Lu+3]", "human CA-XII (Homo sapiens)", "< 8.00"]
]}
